Molecular target: PPI between PRRSV glycoprotein GP2a and CD163-SRCR5 (Sus scrofa, UniProt Q2VL90)
Construct: SRCR5 domain of porcine CD163 receptor was amplified from cDNA of pig cells; expressed in transfected cells; host or cells: HEK293T
Sequence (Q2VL90 477-577): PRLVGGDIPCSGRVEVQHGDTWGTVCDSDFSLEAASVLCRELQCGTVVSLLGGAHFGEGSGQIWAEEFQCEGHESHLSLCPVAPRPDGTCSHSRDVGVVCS
Test: BiFC assay GP2a/SRCR5
Type: cell-based, porcine CD163; PRRSV VR2332
Details: 5 μM, HEK293T, 24 h after transfection, relative to NC (DMSO) = 1.00, n=3
Assign MET to entries whose Average GP2a (relative fluorescence intensity, SRCR5/GP2a BiFC) meets or exceeds 0.06; assign NOT MET to the rest.

Would you please look over these solved cases?
1. Cc1ccc(S(=O)(=O)Nc2nc3ccccc3nc2Nc2cccc(S(=O)(=O)N3CCCC3)c2)cc1
MET
2. Cc1cccc(S(=O)(=O)Nc2nc3ccccc3nc2Nc2cccc(F)c2)c1
MET
3. O=S(=O)(Nc1nc2ccccc2nc1Nc1cccc(S(=O)(=O)N2CCCCC2)c1)c1ccccc1
NOT MET

Could you verify whether the entry COc1ccccc1NS(=O)(=O)c1cccc(Nc2nc3ccccc3nc2NS(=O)(=O)c2ccc(F)cc2C)c1 shows Average GP2a (relative fluorescence intensity, SRCR5/GP2a BiFC) of no less than 0.06? NOT MET

Can you handle Cc1cc(F)ccc1S(=O)(=O)Nc1nc2ccccc2nc1Nc1cccc(Cl)c1Cl next? MET

Can you handle Cc1ccc(Nc2nc3ccccc3nc2NS(=O)(=O)c2ccc(F)cc2C)cc1 next? MET

###

Record form. Attribute: pKd. Fill in for each entry.
Biological target: GFP-fusion CD163-SRCR5 (GFP-fused SRCR5 domain of porcine CD163, recombinant, expressed in E. coli BL21 (DE3)) (Sus scrofa, UniProt Q2VL90)
Construct: GFP and GFP-SRCR2 as controls
Assay: Microscale thermophoresis (MST) assay: direct association of compounds with purified GFP-fused CD163-SRCR5
Conditions: Monolith NT.115, blue channel, values represent Mean, N=3
Numbers only, as −log10 of the molar value.

Known pKd results, listed for orientation:
1) COc1ccc(NS(=O)(=O)c2cccc(Nc3nc4ccccc4nc3NS(=O)(=O)c3ccc(F)cc3C)c2)cc1 [Compound E3]
3.48
2) COc1ccccc1NS(=O)(=O)c1cccc(Nc2nc3ccccc3nc2NS(=O)(=O)c2ccc(F)cc2C)c1 [Compound F9]
4.61
3) Cc1cccc(S(=O)(=O)Nc2nc3ccccc3nc2Nc2cccc(S(=O)(=O)N3CCCCC3)c2)c1 [Compound E10]
4.42

Okay, next one:
Recorded pKd for Cc1ccc(S(=O)(=O)Nc2nc3ccccc3nc2Nc2cccc(S(=O)(=O)N3CCCCC3)c2)cc1 [Compound B7-A4] , please? 4.64

###

Target: GFP
Experiment: Microscale thermophoresis (MST) assay: association of B7 with purified GFP (control protein)
Conditions: Monolith NT.115, blue channel, GFP alone (control), values represent Mean, N=3
measured_parameter: pKd
One number for each entry, as −log10 of the molar value.

Recorded pKd for Cc1cc(F)ccc1S(=O)(=O)Nc1nc2ccccc2nc1Nc1cccc(S(=O)(=O)N2CCOCC2)c1 [Compound B7] , please? 2.68
